# ASSAY INFO: Acute toxicity (method of Lichtfield and Wilcoxon)
# EXPERIMENTAL PARAMETERS: in vivo
MEASUREMENT LABEL: LD50

In [3]: df
Out[3]:
                            compound_string    observed
0  CCN(CC)CCCNC(=O)c1cc([N+](=O)[O-])cc[n+]1[O-]  2000 mg/kg

Values were extracted from patent US3935313A.
